Reference source for all entries: patent US12365658B2

target: Human LBAT (Homo sapiens); construct: kept under Geneticin selection; assay: LBAT (h/m) assay, human LBAT-overexpressing cells, 3H-taurocholic acid uptake; conditions: 0.3 μM 3H-taurocholic acid and 7.5 μM cold taurocholic acid, 20 minutes, read-out: hLBAT IC50
Sequence (Q14973 whole entry): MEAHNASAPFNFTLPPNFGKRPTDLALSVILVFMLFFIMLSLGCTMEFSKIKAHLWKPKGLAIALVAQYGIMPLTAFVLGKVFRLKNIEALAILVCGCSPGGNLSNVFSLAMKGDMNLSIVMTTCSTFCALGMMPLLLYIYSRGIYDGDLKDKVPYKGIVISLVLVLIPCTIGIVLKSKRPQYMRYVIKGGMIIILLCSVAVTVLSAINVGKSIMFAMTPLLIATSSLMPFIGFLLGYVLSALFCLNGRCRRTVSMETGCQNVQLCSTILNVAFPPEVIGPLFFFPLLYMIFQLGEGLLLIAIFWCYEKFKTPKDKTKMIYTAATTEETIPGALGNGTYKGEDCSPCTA
pIC50: −log10 of the molar value.
RESULT_TYPE: pIC50

Use the examples below as a reference point.
CCCCC1CN(c2ccccc2)c2cc(SC)c(OCC(C)(C)C(=O)O)cc2S(=O)(=O)N1C (stereo not drawn) [Example 1] ... 8.01
CCCCC1CN(c2ccccc2)c2cc(SC)c(OCC3(C(=O)O)CC3)cc2S(=O)(=O)N1C (stereo not drawn) [Example 3] ... 7.89
CCCCC1CN(c2ccc(F)cc2)c2cc(SCC)c(OCC(O)C(=O)O)cc2S(=O)(=O)N1C (stereo not drawn) [Example 33] ... 8.22
CCCCC1CN(c2ccc(F)cc2)c2cc(SC)c(OCC(C)(C)C(=O)O)cc2S(=O)(=O)N1C (single isomer, unassigned) [14, enantiomer 2] ... 8.52
CCCCC1CN(c2ccc(F)cc2)c2cc(SC)c(OCC3(C(=O)O)CC3)cc2S(=O)(=O)N1 (stereo not drawn) [Example 16] ... 8.47
CCCCC1CN(c2ccc(F)cc2)c2cc(SC)c(OCC(C)(C)C(=O)O)cc2S(=O)(=O)C1 (stereo not drawn) [Example 9] ... 8.28
CCCCC1CN(c2ccc(F)cc2)c2cc(SCC)c(OCC3(C(=O)O)CC3)cc2S(=O)(=O)N1 (single isomer, unassigned) [19, enantiomer 2] ... 6.97
CCCCC1CN(c2ccccc2)c2cc(SCC)c(OCC3(C(=O)O)CC3)cc2S(=O)(=O)N1 (stereo not drawn) [Example 15] ... 8.38
CCCCC1CN(c2ccc(F)cc2)c2cc(SC)c(OCC3(C(=O)O)CC3)cc2S(=O)(=O)C1 (stereo not drawn) [Example 10] ... 8.00
CCCCC1CN(c2ccccc2)c2cc(SCC)c(OCC3(C(=O)O)CC3)cc2S(=O)(=O)N1C (stereo not drawn) [Example 7] ... 7.60

(1) CCCCC1CN(c2ccccc2)c2cc(SC)c(OCC(C)(OC)C(=O)O)cc2S(=O)(=O)N1C (stereo not drawn) [Example 22]
(2) CCCCC1CN(c2ccc(F)cc2)c2cc(SC)c(OCC3(C(=O)O)CC3)cc2S(=O)(=O)N1C (stereo not drawn) [Example 11]
(3) CCCCC1CN(c2ccccc2)c2cc(SC)c(OCCC(=O)O)cc2S(=O)(=O)C1 (single isomer, unassigned) [26, enantiomer 1]
(4) CCCCC1CN(c2ccccc2)c2cc(SC)c(OCC(C)(OC)C(=O)O)cc2S(=O)(=O)N1C (single isomer, unassigned) [Example 23]
(5) CCCCC1CN(c2ccccc2)c2cc(SC)c(OCC(O)C(=O)O)cc2S(=O)(=O)C1 (stereo not drawn) [Example 28]
Enquiry: Given 5 compounds, produce a descending ranking by pIC50. Use the labels to give the requested order.
Return: 2, 4, 1, 3, 5
(2: 8.35, 4: 7.85, 1: 7.55, 3: 7.23, 5: 6.73)
